inhibition at 1 µM values, listed per item
Target: human FGF-R1 (Homo sapiens, UniProt P11362, C488A/C584S/L457V)
Sequence (P11362 456-766 L457V/C488A/C584S): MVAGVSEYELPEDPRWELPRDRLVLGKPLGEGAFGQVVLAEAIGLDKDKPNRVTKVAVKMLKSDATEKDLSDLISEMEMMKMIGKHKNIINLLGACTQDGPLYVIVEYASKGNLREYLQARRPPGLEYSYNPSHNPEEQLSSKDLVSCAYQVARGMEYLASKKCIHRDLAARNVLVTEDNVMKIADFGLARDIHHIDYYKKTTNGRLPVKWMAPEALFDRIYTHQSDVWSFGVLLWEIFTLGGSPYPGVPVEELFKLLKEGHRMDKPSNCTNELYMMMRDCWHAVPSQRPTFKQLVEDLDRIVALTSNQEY
Test: FGF-R spectrophotometric assay
Format: biochemical
Settings: read-out: FGF* (% inhibition)
Numbers only; they are read as %.

molecule	inhibition at 1 µM (%)
COc1cc(O)ccc1-c1ccc2c(-c3nc4cc(N(C)C)ccc4[nH]3)n[nH]c2c1 [Reference Example 25(h)]	91

Ask: Observed inhibition at 1 µM on human FGF-R1 (Homo sapiens, UniProt P11362, C488A/C584S/L457V) for `Cc1cc(O)c(Cl)cc1-c1ccc2c(-c3nc4ccccc4[nH]3)n[nH]c2c1` , please.
Reply: 89

Ask: Moving on to the next molecule: COc1cc(O)ccc1-c1ccc2c(-c3nc4c(SCCO)cccc4[nH]3)n[nH]c2c1 [Reference Example 25(f)]
Reply: 56

Ask: Moving on to the next molecule: COc1cc(O)ccc1-c1ccc2c(-c3nc4ccc(C(=O)NCCN5CCOCC5)cc4[nH]3)n[nH]c2c1 [Reference Example 25(b)]
Reply: 87

Ask: Moving on to the next molecule: COc1cc(O)ccc1-c1ccc2c(-c3nc4ccc(N5CCN(C)CC5)cc4[nH]3)n[nH]c2c1 [Reference Example 25(c)]
Reply: 96

###

Target: CDK2/Cyclin A complex (Homo sapiens, UniProt P24941)
Assay: CDK2/Cyclin A assay ([32P]ATP incorporation into Rb fragment)
Type: biochemical
Details: read-out: CDK2 * (% inhibition)
inhibition at 1 µM values, listed per item
In your response, the unit should come after the numeric value.

For orientation, consider the following solved cases.
compound	result
OCCOc1cc(-c2ccc3c(/C=C/c4ccccc4)n[nH]c3c2)ccc1O [Reference Example 27(i)]	73%
Oc1ccc(-c2ccc3c(/C=C/c4ccccc4)n[nH]c3c2)cc1 [Reference Example 28(b)]	97%
CCn1nc(C)cc1C(=O)Nc1cc(Nc2ccc3c(/C=C/c4ccccn4)n[nH]c3c2)c(F)cc1C [Example 48(a)]	0%
CCn1nc(C)cc1C(=O)Nc1cccc(Oc2ccc3c(/C=C/c4ccccn4)n[nH]c3c2)c1 [Reference Example 31(d)]	5%
CCn1nc(C)cc1C(=O)Nc1cc(C(=O)c2ccc3c(/C=C/c4ccccn4)n[nH]c3c2)ccc1C [Reference Example 41(ee)]	0%

Ask: Observed inhibition at 1 µM on CDK2/Cyclin A complex (Homo sapiens, UniProt P24941) for CCONC(=O)c1ccccc1Sc1ccc2c(/C=C/c3ccccn3)n[nH]c2c1 [Reference Example 35(dd)] , please.
Reply: 7%

Ask: Moving on to the next compound: Oc1cccc(-c2ccc3c(/C=C/c4ccccc4)n[nH]c3c2)c1 [Reference Example 28(a), 6-(3-hydrophenyl)-3-E-styryl-1H-indazole]
Reply: 75%

Ask: Moving on to the next compound: CC(C)ONC(=O)c1ccccc1Sc1ccc2c(/C=C/c3ccccn3)n[nH]c2c1 [Reference Example 35(k)]
Reply: 8%

Ask: Moving on to the next compound: Cc1cc(C(=O)Nc2cccc(C(=O)c3ccc4c(/C=C/c5ccccn5)n[nH]c4c3)c2)n(C)n1 [Reference Example 41(p)]
Reply: 6%

###

Conditions: mouse, in vivo, po, 25 mg/kg, pH 2.3
value type: AUCleast (ng·h/mL)
Numbers only; they are read as ng·h/mL.

structure smiles	value type	reading unit	readout number
C=CCn1nc(C)cc1C(=O)Nc1cc(C(=O)c2ccc3c(/C=C/c4ccccn4)n[nH]c3c2)ccc1C	AUCleast	ng·h/mL	9176
CC(C)=CC(=O)Nc1cccc(C(=O)c2ccc3c(/C=C/c4ccccn4)n[nH]c3c2)c1	AUCleast	ng·h/mL	654
COc1cccc(CNC(=O)c2ccccc2Sc2ccc3c(/C=C/c4ccccn4)n[nH]c3c2)c1	AUCleast	ng·h/mL	4036
CCc1cc(C(=O)Nc2cccc(C(=O)c3ccc4c(/C=C/c5ccccn5)n[nH]c4c3)c2)n(C)n1	AUCleast	ng·h/mL	10949
COc1ccc(CNC(=O)c2ccccc2Sc2ccc3c(/C=C/c4ccccn4)n[nH]c3c2)cc1	AUCleast	ng·h/mL	231

// next entry
Ask: I am curious: what AUCleast value has been reported for `CC(C)ONC(=O)c1cccc(F)c1Sc1ccc2c(/C=C/c3ccccn3)n[nH]c2c1` ?
Reply: 2419

###

Target: human FGF-R1 (Homo sapiens, UniProt P11362, C488A/C584S/L457V)
Assay: FGF-R spectrophotometric assay
Format: biochemical
value type: pKi
# pKi: negative log10 of molar concentration; output just the value

Ask: I am curious: what pKi value has been reported for `CC(=O)Nc1cccc(Oc2ccc3c(/C=C/c4ccccc4)n[nH]c3c2)c1` ?
Reply: 8.31

###

Target: phosphorylated VEGF-R2Δ50 (Homo sapiens, UniProt P35968, DEL940-989/E990V)
Sequence (P35968 with tags, fused parts or gaps DEL940-989/E990V limits assumed): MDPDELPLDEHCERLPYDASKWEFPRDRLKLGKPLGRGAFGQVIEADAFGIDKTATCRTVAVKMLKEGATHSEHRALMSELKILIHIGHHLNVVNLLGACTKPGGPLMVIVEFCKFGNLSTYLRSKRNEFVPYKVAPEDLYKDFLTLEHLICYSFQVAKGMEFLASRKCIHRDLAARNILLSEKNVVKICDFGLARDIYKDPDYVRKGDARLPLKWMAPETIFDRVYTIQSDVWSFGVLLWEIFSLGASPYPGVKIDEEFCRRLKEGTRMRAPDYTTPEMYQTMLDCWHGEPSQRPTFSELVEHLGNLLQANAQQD
Experiment: biochemical
value type: pKi
# pKi: negative log10 of molar concentration; output just the value

Ask: I am curious: what pKi value has been reported for CC(=O)NC(C(=O)Nc1cccc(C(=O)c2ccc3c(/C=C/c4ccccc4)n[nH]c3c2)c1)c1ccccc1 (stereo not shown) ?
Reply: 8.33

###

Assay: in vitro
Type: in vitro ADME, human
Conditions: human liver microsomes, 5 µM test compound, 37 °C, 2 h
% remain (HLM, 2 h) values, listed per item
Numbers only; they are read as %.

For orientation, consider the following solved cases.
compound	value type	reading unit	readout number
CCn1nc(C)cc1C(=O)Nc1cccc(C(=O)c2ccc3c(/C=C/c4ccccn4)n[nH]c3c2)c1 [Reference Example 41(a)]	% remain (HLM, 2 h)	%	96
CC(C)=CC(=O)Nc1cccc(C(=O)c2ccc3c(/C=C/c4ccccn4)n[nH]c3c2)c1 [Reference Example 41(dd)]	% remain (HLM, 2 h)	%	7
O=C(c1cccc(NC(=O)c2ccccn2)c1)c1ccc2c(/C=C/c3ccccc3)n[nH]c2c1	% remain (HLM, 2 h)	%	58

Ask: I am curious: what % remain (HLM, 2 h) value has been reported for C=CCn1nc(C)cc1C(=O)Nc1cc(C(=O)c2ccc3c(/C=C/c4ccccn4)n[nH]c3c2)ccc1C [Reference Example 41(ff)] ?
Reply: 68

###

inhibition at 1 µM values, listed per item
Target: human FGF-R1 (Homo sapiens, UniProt P11362, C488A/C584S/L457V)
Experiment: FGF-R spectrophotometric assay
Type: biochemical
Conditions: Table 1; compound concentration 1 µM; read-out: FGF-P* (% inhibition)
Numbers only; they are read as %.

For orientation, consider the following solved cases.
compound	inhibition at 1 µM / %
Cc1cc(C)c(C(=O)c2ccc3c(/C=C/c4ccccn4)n[nH]c3c2)cc1N [Reference Example 40(c)]	59
CC(C)COC(=O)Nc1cccc(C(=O)c2ccc3c(/C=C/c4ccccn4)n[nH]c3c2)c1 [Reference Example 41(y)]	86
O=C(NCc1ccncc1)c1ccccc1Sc1ccc2c(/C=C/c3ccccn3)n[nH]c2c1 [Reference Example 35(p)]	11
CCn1nc(C)cc1C(=O)Nc1cccc(Oc2ccc3c(/C=C/c4c[nH]cn4)n[nH]c3c2)c1 [Reference Example 32(b)]	95
Cc1cc(C(=O)Nc2cccc(C(=O)c3ccc4c(/C=C/c5ccccn5)n[nH]c4c3)c2)cc(Cl)n1 [Reference Example 41(q)]	91

Ask: I am curious: what inhibition at 1 µM value has been reported for O=C(Nc1nccs1)c1ccccc1Sc1ccc2c(/C=C/c3ccccn3)n[nH]c2c1 [Reference Example 35(y)] ?
Reply: 82

Ask: Moving on to the next compound: CS(=O)(=O)c1ccc(C(=O)Nc2cccc(Oc3ccc4c(/C=C/c5ccccn5)n[nH]c4c3)c2)s1 [Reference Example 31(c)]
Reply: 98

###

Molecular target: LCK tyrosine kinase (Homo sapiens, UniProt P06239, C224D/P223M)
Sequence (P06239 223-509 P223M/C224D): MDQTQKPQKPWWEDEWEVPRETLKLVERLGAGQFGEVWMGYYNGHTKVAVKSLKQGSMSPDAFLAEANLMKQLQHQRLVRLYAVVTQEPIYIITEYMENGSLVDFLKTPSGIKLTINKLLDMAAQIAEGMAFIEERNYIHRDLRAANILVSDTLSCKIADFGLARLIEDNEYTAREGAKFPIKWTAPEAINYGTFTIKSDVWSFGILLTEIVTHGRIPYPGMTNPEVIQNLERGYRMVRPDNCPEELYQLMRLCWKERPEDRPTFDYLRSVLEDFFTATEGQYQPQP
Experiment: LCK spectrophotometric assay
Type: biochemical
Conditions: Table 1; compound concentration 1 µM; read-out: Lck-P* (% inhibition)
inhibition at 1 µM values, listed per item
In your response, the unit should come after the numeric value.

For orientation, consider the following solved cases.
compound	inhibition at 1 µM
O=C(Nc1cccc(C(=O)c2ccc3c(-c4nc5ccccc5[nH]4)n[nH]c3c2)c1)c1ccccc1 [Reference Example 42(b)]	75%
O=C(NC1CC1)c1cccc(F)c1Sc1ccc2c(/C=C/c3ccccn3)n[nH]c2c1 [Reference Example 37(b)]	8%
CC(=O)c1cccc(C(=O)Nc2cccc(N(C)c3ccc4c(/C=C/c5ccc6c(c5)OCO6)n[nH]c4c3)c2)c1 [16(e)]	8%

Ask: I am curious: what inhibition at 1 µM value has been reported for `Cc1cc(C(=O)Nc2cc(Nc3ccc4c(/C=C/c5ccccn5)n[nH]c4c3)c(F)cc2C)n(C)n1` ?
Reply: 6%

###

Biological target: human FGF-R1 (Homo sapiens, UniProt P11362, C488A/C584S/L457V)
Test: FGF-R spectrophotometric assay
Type: biochemical
Conditions: Table 1; compound concentration 1 µM; read-out: FGF-P* (% inhibition)
inhibition at 1 µM values, listed per item
Numbers only; they are read as %.

compound	value type	reading unit	readout number
O=C(Nc1cccc(C(=O)c2ccc3c(/C=C/c4ccccn4)n[nH]c3c2)c1)c1ccnc(Cl)c1 [Reference Example 41(w)]	inhibition at 1 µM	%	67
O=C(Nc1cccc(Sc2ccc3c(/C=C/c4ccccc4)n[nH]c3c2)c1)c1ccccc1 [20(b)]	inhibition at 1 µM	%	28
O=C(NC1CC1)c1ccccc1Sc1ccc2c(/C=C/c3ccccn3)n[nH]c2c1 [Reference Example 33(e)]	inhibition at 1 µM	%	68
CC(=O)c1cccc(C(=O)Nc2cccc(N(C)c3ccc4c(/C=C/c5ccc6c(c5)OCO6)n[nH]c4c3)c2)c1 [16(e)]	inhibition at 1 µM	%	59
O=C(Nc1cccc(Oc2ccc3c(/C=C/c4c[nH]cn4)n[nH]c3c2)c1)c1ccccc1 [Reference Example 32(a)]	inhibition at 1 µM	%	96
Cc1ccc(C(=O)c2ccc3c(/C=C/c4ccccn4)n[nH]c3c2)cc1N [Reference Example 40(b)]	inhibition at 1 µM	%	92
O=C(NCc1cccc(F)c1)c1ccccc1Sc1ccc2c(/C=C/c3ccccn3)n[nH]c2c1 [Reference Example 35(ff)]	inhibition at 1 µM	%	75
O=C(c1cccc(NC(=O)c2ccccn2)c1)c1ccc2c(/C=C/c3ccccc3)n[nH]c2c1 [19(k)]	inhibition at 1 µM	%	41

Ask: I am curious: what inhibition at 1 µM value has been reported for Cc1cc(C(=O)Nc2cccc(C(=O)c3ccc4c(/C=C/c5ccccn5)n[nH]c4c3)c2)n[nH]1 [Reference Example 41(g)] ?
Reply: 95

Ask: Moving on to the next compound: CC(=O)Nc1cc(C(=O)c2ccc3c(/C=C/c4ccccn4)n[nH]c3c2)c(C)cc1C [Reference Example 41(nn)]
Reply: 91

Ask: Moving on to the next compound: CC(=O)c1ccc(C(=O)Nc2cccc(C(=O)c3ccc4c(/C=C/c5ccccn5)n[nH]c4c3)c2)s1 [Reference Example 41(e)]
Reply: 31

Ask: Moving on to the next compound: CC(C)ONC(=O)c1cccc(F)c1Sc1ccc2c(/C=C/c3ccccn3)n[nH]c2c1 [Reference Example 37(c)]
Reply: 39

Ask: Moving on to the next compound: O=C(c1cccc(NC(=O)c2cccc3[nH]ccc23)c1)c1ccc2c(/C=C/c3ccccc3)n[nH]c2c1 [19(f)]
Reply: 58

Ask: Moving on to the next compound: O=C(Nc1cccc(C(=O)c2ccc3c(/C=C/c4ccccc4)n[nH]c3c2)c1)c1ccncc1 [19(j)]
Reply: 44

Ask: Moving on to the next compound: O=C(NC1CCC1)c1ccccc1Sc1ccc2c(/C=C/c3ccccn3)n[nH]c2c1 [Reference Example 35(c)]
Reply: 42

Origin of values: patent EP1614683B1
